Catalogue of sequences with associated phosphorylation enrichment
# assay.system: Fes (UniProt P07332)
# Sequence (P07332 whole entry, looked up): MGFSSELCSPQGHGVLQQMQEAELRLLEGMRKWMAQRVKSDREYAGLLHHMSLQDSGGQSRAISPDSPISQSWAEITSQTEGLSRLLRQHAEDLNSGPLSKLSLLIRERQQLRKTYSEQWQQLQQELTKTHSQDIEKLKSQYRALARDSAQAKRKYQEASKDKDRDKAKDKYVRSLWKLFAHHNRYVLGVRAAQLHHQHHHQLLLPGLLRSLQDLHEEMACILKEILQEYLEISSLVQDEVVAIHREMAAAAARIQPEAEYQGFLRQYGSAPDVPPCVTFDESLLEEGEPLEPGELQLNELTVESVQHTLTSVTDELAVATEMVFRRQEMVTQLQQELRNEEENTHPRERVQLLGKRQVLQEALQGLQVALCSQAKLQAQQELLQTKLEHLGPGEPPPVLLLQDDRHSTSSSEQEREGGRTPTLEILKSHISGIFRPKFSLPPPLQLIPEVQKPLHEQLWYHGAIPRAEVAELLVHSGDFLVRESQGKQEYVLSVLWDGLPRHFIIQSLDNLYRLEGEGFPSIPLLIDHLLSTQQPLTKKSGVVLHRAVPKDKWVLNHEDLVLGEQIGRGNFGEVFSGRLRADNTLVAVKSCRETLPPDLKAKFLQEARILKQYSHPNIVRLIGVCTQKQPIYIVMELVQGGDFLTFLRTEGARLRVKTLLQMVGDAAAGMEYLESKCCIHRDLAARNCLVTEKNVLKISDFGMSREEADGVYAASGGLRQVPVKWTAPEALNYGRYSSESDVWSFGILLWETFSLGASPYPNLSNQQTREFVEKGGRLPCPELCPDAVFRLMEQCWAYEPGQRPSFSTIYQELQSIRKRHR
# experiment.description: phosphorylation enrichment, bacterial display (enrichment ratio); higher = better substrate or ligand; peptides without Tyr show the background
Form field (numeric): enter value without unit.

1. WQQQSYLDSEI [CTNNB1_Y30_G34E] :: 0.854
2. QHVPDYRQNGF [PCDHGA1_Y890_V894G_YF] :: 0.875
3. LESETYRRLLD [KRT12_Y429_I426S] :: 1.66
4. PPKFFYTRKLL [CYBB_Y41] :: 0.801
5. LQFRNYQQLFD [MAN2A1_Y442_K440R] :: 2.25
6. YQGGTYSKAST [FGG_Y380] :: 0.526

Input: Recorded phosphorylation enrichment for PKGTGCIKTEL [STAT1_Y701_Y701C] , please?
Output: 1.27

* * *

# assay.system: Fyn (UniProt P06241)
# Sequence (P06241 whole entry, looked up): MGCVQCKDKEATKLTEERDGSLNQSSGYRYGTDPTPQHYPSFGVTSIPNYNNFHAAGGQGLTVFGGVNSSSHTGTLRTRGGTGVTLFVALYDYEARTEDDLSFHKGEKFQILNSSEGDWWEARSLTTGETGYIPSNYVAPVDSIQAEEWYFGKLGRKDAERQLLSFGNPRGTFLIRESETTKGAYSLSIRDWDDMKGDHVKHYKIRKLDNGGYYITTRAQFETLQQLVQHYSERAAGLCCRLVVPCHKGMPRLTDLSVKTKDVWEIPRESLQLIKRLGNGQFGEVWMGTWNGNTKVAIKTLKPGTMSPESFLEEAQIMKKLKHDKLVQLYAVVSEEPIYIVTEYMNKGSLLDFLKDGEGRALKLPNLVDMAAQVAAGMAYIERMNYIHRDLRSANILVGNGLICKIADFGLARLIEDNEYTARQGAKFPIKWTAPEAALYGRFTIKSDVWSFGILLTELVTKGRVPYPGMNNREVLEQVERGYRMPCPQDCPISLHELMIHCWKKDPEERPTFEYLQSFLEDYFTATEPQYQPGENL
# experiment.description: phosphorylation enrichment, bacterial display (enrichment ratio); higher = better substrate or ligand; peptides without Tyr show the background
// Not met strictly below 0.6 in phosphorylation enrichment; Met otherwise

1) CFSSEYHFVGG [CTSC_Y345_Y340C_YF] :: Met

Input: Please check the record SISLKYEGRVF [ABL1_Y167_R166K_YF] and state if its phosphorylation enrichment is at or above 0.6.
Output: Not met

Input: hey, is phosphorylation enrichment for this one >= 0.6? NKYTTYLPRLP [C9orf24_Y126]
Output: Not met

Input: Identify whether the reported phosphorylation enrichment of the following sequence is 0.6 or greater: KINKMYSDRAM
Output: Not met

Input: Tell me whether phosphorylation enrichment is at least 0.6 here: LTVVIYVLVGR [EPHA3_Y561_I564V]
Output: Met

* * *

# assay.system: MERTK (UniProt Q12866)
# Sequence (Q12866 whole entry, looked up): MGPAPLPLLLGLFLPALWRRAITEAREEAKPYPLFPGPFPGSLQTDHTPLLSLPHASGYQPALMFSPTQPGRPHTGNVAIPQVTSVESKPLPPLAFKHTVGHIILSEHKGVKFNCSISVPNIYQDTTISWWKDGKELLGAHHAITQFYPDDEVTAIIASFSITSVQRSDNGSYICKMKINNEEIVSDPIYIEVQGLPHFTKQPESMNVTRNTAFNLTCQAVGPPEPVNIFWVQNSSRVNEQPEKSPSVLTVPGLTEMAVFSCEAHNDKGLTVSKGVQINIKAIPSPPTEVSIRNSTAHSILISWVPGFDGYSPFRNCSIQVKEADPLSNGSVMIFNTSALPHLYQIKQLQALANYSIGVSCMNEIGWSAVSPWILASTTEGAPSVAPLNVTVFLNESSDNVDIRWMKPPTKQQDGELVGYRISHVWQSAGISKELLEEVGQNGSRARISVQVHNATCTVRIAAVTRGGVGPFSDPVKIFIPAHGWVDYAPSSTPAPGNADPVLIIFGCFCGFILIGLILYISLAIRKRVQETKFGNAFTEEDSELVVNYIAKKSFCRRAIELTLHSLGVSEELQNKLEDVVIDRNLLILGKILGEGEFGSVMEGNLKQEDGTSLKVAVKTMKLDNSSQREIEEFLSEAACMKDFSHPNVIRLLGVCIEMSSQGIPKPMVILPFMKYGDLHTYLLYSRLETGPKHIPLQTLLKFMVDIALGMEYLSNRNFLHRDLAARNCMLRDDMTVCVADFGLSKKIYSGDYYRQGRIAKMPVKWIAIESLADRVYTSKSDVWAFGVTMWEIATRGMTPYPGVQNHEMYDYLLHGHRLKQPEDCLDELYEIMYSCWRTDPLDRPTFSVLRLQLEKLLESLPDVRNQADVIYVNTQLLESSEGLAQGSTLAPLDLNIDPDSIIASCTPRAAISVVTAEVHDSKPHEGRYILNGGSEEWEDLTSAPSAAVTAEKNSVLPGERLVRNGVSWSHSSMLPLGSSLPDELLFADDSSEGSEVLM
# experiment.description: phosphorylation enrichment, bacterial display (enrichment ratio); higher = better substrate or ligand; peptides without Tyr show the background
measurement.label: phosphorylation enrichment
The response must contain the number and no unit.

Field: example entries. Status: answers known.
1. SDMGQYQCLVF [AXL_Y115_T112M] :: 1.84
2. IRKVLYANNVM [ACTA1_Y296_D294V] :: 0.328
3. RVILRYVNPGN [LAMA3_Y791_T796N] :: 0.709
4. PMDTFYDSTRG [DYNC2H1_Y2231_YF] :: 0.501
5. QGIPRYHSQSP [FOXF1_Y331] :: 1.22

Input: Param item = IKAGAYDFPSP [CAMK2A_Y230] ; retrieve measured phosphorylation enrichment.
Output: 4.85

Input: Look up phosphorylation enrichment for this sequence: SARVRYLMAEK [LDHB_Y173_F171V]
Output: 0.417

Input: Which phosphorylation enrichment reading was recorded for the sequence PQAVTYAKVKH [LILRB4_Y360] ?
Output: 0.339

Input: Fill in the blank: the reported phosphorylation enrichment of TFGVVYKARNK [CDK2_Y19_YF] is ____.
Output: 0.321

Input: Return reported phosphorylation enrichment; argument: STSYDYCRVPM [BST2_Y8]
Output: 3.24

Input: Given RTLIRYANLGN [BEST1_Y131] , state its recorded phosphorylation enrichment.
Output: 0.706

Input: Find the recorded phosphorylation enrichment belonging to VTAALYGCLYE [BTD_Y536_R538C] and report it.
Output: 2.11

Input: What does the record list as phosphorylation enrichment for GRDVIYKGFED [NFU1_Y194_G190R] ?
Output: 0.391

Input: Given the entry LNGDRYFKGIV [DCX_Y64_R59L] , report its measured phosphorylation enrichment.
Output: 1.37

Input: Entry under review: FDAHNYHPLPV [OAT_Y55_G51D_YF] . Reported phosphorylation enrichment?
Output: 1.09

Input: Look at this sequence and give its reported phosphorylation enrichment. PADCRYFTFPQ [GAMT_Y222_A224T_YF]
Output: 1.66

Input: Recorded phosphorylation enrichment of FFVVEYRDQKP [MUC17_Y4332_YF] , please.
Output: 0.374

Input: Value lookup for phosphorylation enrichment; key = GCAGKYIAMVM [CYP19A1_Y441]
Output: 0.569

Input: If you can, please state the reported phosphorylation enrichment value of QHVPDYRQNVF [PCDHGA1_Y890_YF] .
Output: 0.54

Input: I have this sequence here, GGKYSYLKVGH [GRM3_Y480] , and I need its recorded phosphorylation enrichment.
Output: 0.513

Input: Reported phosphorylation enrichment, sequence LVMFISAIFGM [SCN1A_Y1684_Y1684S] : ____
Output: 0.722

Input: Need phosphorylation enrichment of VPVNGYQPVTA [ROR2_Y824_P828T] , thanks.
Output: 0.392

Input: Recorded phosphorylation enrichment for SGAWSYNTSTE [SELE_Y24] , please?
Output: 0.447

Input: Fill in: phosphorylation enrichment of LGRGKYSEVFE [CSNK2A1_Y50] is ___
Output: 0.753

Input: Report phosphorylation enrichment for TFRPPYYHRNC [HGD_Y333] please.
Output: 0.498

Input: Record request: phosphorylation enrichment value, item DRLANYLEKVR [KRT40_Y103_S102N]
Output: 0.41

Input: For LTVVIYVLVGR [EPHA3_Y561_I564V] , what is its reported phosphorylation enrichment?
Output: 0.479

* * *

# System: Fer (mouse)
# experiment.description: phosphorylation enrichment, bacterial display (enrichment ratio); higher = better substrate or ligand; peptides without Tyr show the background
Label MET when phosphorylation enrichment is at or above 0.5; anything below gets NOT MET.

Some solved entries appear below for comparison.
1) IRKVLYANNVM [ACTA1_Y296_D294V] :: NOT MET
2) SSVKLYRVYCD [FGB_Y266_P265L] :: MET
3) AIGYEYSEINI [SIGLEC12_Y588] :: MET

Input: Item RVILRYVNPGN [LAMA3_Y791_T796N] with phosphorylation enrichment of 0.5 or above?
Output: MET

Input: Item KEEEDYKEENN [BMS1_Y651] with phosphorylation enrichment of 0.5 or above?
Output: MET

Input: Decide: phosphorylation enrichment of RDMNAYISPSP [MMAA_Y207_R209S] >= 0.5?
Output: MET

Input: Answer whether phosphorylation enrichment of PSRKDYETYQP [CTNND2_Y1154] is greater than or equal to 0.5.
Output: NOT MET

Input: Please indicate if the recorded phosphorylation enrichment for ISRASYYRKGG [ALK_Y1282_Y1278S] meets or exceeds 0.5.
Output: NOT MET

Input: Hello, I need to know if VVLVSYVPSSQ [SH2B1_Y624] has measured phosphorylation enrichment not below 0.5. Thanks!
Output: NOT MET

Input: API: above_or_equal(metric=phosphorylation enrichment, cutoff=0.5) for item KENITYMKSEQ [L1TD1_Y24_R27S]
Output: NOT MET

Input: For this sequence, is measured phosphorylation enrichment 0.5 or higher? KELANYYKLHH [AK7_Y390]
Output: NOT MET

Input: Hi, just wondering whether CTTIHYNFMRN [TP53_Y234_C238R_YF] shows phosphorylation enrichment of 0.5 or higher.
Output: MET

Input: Can GSSKIYFLHPD [TLR5_Y108] be said to have phosphorylation enrichment at or above 0.5?
Output: NOT MET

Input: Can SWKRRYFLLWA [APBB1IP_Y331_R335W] be said to have phosphorylation enrichment at or above 0.5?
Output: NOT MET

* * *

# assay.system: EPHB1 (UniProt P54762)
# Sequence (P54762 whole entry, looked up): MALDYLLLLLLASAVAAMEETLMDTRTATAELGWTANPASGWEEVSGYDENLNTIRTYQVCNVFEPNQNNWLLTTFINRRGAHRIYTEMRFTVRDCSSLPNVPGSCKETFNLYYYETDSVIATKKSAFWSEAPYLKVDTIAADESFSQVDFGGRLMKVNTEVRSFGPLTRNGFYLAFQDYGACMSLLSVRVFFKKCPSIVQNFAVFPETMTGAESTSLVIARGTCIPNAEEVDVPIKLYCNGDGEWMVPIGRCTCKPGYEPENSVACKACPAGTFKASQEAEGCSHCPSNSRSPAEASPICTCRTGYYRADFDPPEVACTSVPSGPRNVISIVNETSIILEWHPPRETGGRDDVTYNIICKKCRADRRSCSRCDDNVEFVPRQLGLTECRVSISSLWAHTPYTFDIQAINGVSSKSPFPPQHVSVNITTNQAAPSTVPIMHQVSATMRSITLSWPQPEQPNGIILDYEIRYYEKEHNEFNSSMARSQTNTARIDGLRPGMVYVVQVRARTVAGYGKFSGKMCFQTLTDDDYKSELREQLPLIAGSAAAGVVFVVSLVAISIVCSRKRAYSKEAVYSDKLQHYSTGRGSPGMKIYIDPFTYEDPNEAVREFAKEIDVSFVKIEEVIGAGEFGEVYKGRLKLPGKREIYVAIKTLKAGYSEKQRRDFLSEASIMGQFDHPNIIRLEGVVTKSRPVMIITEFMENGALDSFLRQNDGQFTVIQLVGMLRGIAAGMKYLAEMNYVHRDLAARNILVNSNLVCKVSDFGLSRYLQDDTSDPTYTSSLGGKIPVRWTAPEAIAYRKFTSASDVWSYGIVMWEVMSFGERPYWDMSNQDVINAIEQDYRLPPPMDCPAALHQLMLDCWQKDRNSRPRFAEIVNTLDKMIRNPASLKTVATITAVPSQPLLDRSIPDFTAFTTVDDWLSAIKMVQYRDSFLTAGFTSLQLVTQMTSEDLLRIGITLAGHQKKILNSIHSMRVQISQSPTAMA
# experiment.description: phosphorylation enrichment, bacterial display (enrichment ratio); higher = better substrate or ligand; peptides without Tyr show the background
measurement.label: phosphorylation enrichment
Just the number, please, no unit after it.

# count of solved cases: 5
1. MAYDRYVAICS [OR8D4_Y123_C120Y] :: 1.28
2. SNKLFYQLEQE [PDPR_Y110_YF] :: 0.628
3. KEAVLYPHLPP [SQSTM1_Y383_A381V] :: 0.409
4. FDAHNYHPLPV [OAT_Y55_G51D_YF] :: 0.635
5. CEAVEYLESKQ [BTK_Y511_M509V] :: 0.546

Input: Record request: phosphorylation enrichment value, item RESFKYLPSSL [CXXC1_Y218_F219L_YF]
Output: 0.512

Input: Any idea what its phosphorylation enrichment is? The sequence is VGTKRYMAPEV [ACVRL1_Y375]
Output: 0.351

Input: Quick check: phosphorylation enrichment of PTATSYNPNLA [GABRA1_Y375_T376N] ?
Output: 0.808

* * *

# assay.system: c-Src SH2;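 also: peptide library displayed on the E. coli surface as eCPX fusions, selected cells deep-sequenced, score is each peptide's frequency after selection divided by its frequency in the input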
# experiment.description: SH2 binding enrichment of the phosphorylated peptide, bacterial display (enrichment ratio); higher = better substrate or ligand; peptides without Tyr show the background
The label depends only on SH2 binding enrichment: Condition met if it is at least 0.6, Condition not met if it is smaller.

Illustrative cases are given below, each with its answer.
1) GQAPGYSFTAA [CYCS_Y47_YF] :: Condition not met
2) RSRSPYSSRHS [CDK13_Y415] :: Condition not met

Input: Is SH2 binding enrichment at least 0.6? Consider LHVGFYESDVM [A2M_Y708_R704H]
Output: Condition met

Input: Please check the record ASSPVYVPTTR [GATA6_Y188] and state if its SH2 binding enrichment is at or above 0.6.
Output: Condition not met

Input: Is SH2 binding enrichment at least 0.6? Consider YKWAVYCIIGR [NUP93_Y391_R388W]
Output: Condition met

Input: // inclusive: SH2 binding enrichment at least 0.6? input: PPKFFYTRKLL [CYBB_Y41]
Output: Condition not met

Input: Kindly determine if SH2 binding enrichment recorded for IHFAIYFLKYS [ARMC9_Y107_L108F] is above or exactly 0.6.
Output: Condition met
